Target: T1, human CDH6 on tumor cells (OVCAR3 cells, PA-1 cells) (human, UniProt P55285 54-790)
T1 sequence: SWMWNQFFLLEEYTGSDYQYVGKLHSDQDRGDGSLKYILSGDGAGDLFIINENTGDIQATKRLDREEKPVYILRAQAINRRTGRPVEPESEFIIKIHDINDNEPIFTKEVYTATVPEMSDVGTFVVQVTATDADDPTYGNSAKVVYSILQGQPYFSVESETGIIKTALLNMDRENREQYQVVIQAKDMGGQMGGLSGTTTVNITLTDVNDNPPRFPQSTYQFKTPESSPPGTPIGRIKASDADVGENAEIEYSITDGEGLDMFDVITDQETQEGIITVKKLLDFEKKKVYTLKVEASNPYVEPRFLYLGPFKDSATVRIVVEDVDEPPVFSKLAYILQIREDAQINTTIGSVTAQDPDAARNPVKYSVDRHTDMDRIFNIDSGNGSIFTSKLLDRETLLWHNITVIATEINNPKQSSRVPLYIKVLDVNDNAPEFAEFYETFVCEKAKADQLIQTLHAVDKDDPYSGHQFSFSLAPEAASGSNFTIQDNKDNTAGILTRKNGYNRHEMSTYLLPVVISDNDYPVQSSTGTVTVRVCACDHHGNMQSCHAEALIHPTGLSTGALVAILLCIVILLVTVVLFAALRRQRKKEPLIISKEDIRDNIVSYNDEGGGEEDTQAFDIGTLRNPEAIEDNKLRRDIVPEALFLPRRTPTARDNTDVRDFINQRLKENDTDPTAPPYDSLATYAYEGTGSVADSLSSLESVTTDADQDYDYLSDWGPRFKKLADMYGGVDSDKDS
Test: FACS, OVCAR3 cells
Quick reference for EC50 among some binders

[
  {
    "binder": "CHI-CDH6-9 (antibody, human IgG1, kappa, V domains shown, also called chimeric antibody of murine CDH6-9) VH: QVQLQQPGAELVKPGASVKLSCKASGYTFTGYWMHWVRQRPGQGLEWIGEINPNNGGTNCNEQFKNKATLTVDKSSSTAYMQLSSLTSEDSAVFYCTISFGNYLFFDVWGAGTTVTVSS VL: DIQMTQSPASLAASVGETITITCQASENIYFSLAWYQQKQGKSPQLLIYNANTLEDGVPSRFVGSGSGTQYSMKINSIQPEDTATYFCDQTYDFPWTFGGGTKLEIKR",
    "EC50 (nM)": 0.51
  },
  {
    "binder": "CHI-CDH6-5 (antibody, human IgG1, kappa, V domains shown, also called CH1-CDH6-5; chimeric antibody of murine CDH6-5) VH: QVQLQQSGAELVRPGTSVKMSCKAAEYTFTNYWIGWVKQRPGHGLEWIGDLYPGGDHANYNEKFEGKATLTADTSSSTAYMQLSSLTSEDSAIYYCARGMLTTGFDSWGQGTTLTVSS VL: DIVMSQSPSSLAVSAGEKVTMSCKSSQSLFNSRTRKNYLAWYQQKPGQSPKLLIYWASTRESGVPDRFTGSGSGTDFTLTISSVQAEDLAVYYCKQSYYLRTFGGGTKLEIKR",
    "EC50 (nM)": 0.57
  },
  {
    "binder": "CHI-CDH6-14 (antibody, human IgG1, kappa, V domains shown, also called CHI-hCDH6-14; CH1-CDH6-14) VH: QIQLQQSGPELVKPGTSVKISCKASGYTFTDNYINWVRQRPGQGLEWIGWIYPGTGNSYYNEKFKGKATLTVDTSSSTAYMQFSSLTSEDSAVYLCASSYGDSFDYWGQGTTLTVSS VL: DIQMTQTTSSLSASLGNRVTISCRASQDIRNYLNWYQQKPDGTFKLLISYTSRLHSGVPSRFSGSGSGTDYSLTVSNLEPEDIATYYCQQYSQLPWTFGGGSRLEIKR",
    "EC50 (nM)": 0.43
  },
  {
    "binder": "CHI-CDH6-2 (antibody, human IgG1, kappa, V domains shown, also called chimeric antibody of murine CDH6-2) VH: EVQLQQSGPELVKPGASVRISCKASGYTFTDYYMNWVKQSHGKSLEWIGDIDPNNANTTYNQKFKGKATLTVDKSSSTAYMELRSLTSEDSAVYSCASFGYDVEWFGYWGQGTLVTVSA VL: QIVLTQSPALMSASPGEKVTMTCSASSSVSYMYWYQQKPRSSPKPWIYLTSNLASGVPARFSGSGSGTSYSLTISSMEAEDAATYYCQQWSSNPFTFGSGTKLEIKR",
    "EC50 (nM)": 0.36
  },
  {
    "binder": "CHI-CDH6-13 (antibody, human IgG1, kappa, V domains shown, also called chimeric antibody of murine CDH6-13) VH: DVQLQESGPGLVKPSQSLSLTCSVTGYSITKDSYWNWIRQFPGSKLEWMGFISYDGSRHYNPSLKNRISITRDTSKNQFFLQLNSVTTEDTATYYCARRDYADYWGQGTTLTVSS VL: QIVLTQSPALMSAFPGEKVTMTCSATSSVSYIYWYQQKPRSSPKPWIYLTSNLASGVPARFSGSGSGTSYSLTINSLEAEDAATYYCQQWSSIPYTFGGGTKLEIKR",
    "EC50 (nM)": 2.08
  }
]
